Reported apparent KD of MS2 coat protein values for the following sequences.
Test system: MS2 coat protein
Experiment: apparent KD of MS2 coat protein; higher = weaker reporter binding
Conditions: Eterna round: R107; input ligand: theophylline 20 uM
Field format: number, assumed nM, no unit text.

Quick check: apparent KD of MS2 coat protein on MS2 coat protein, item ACGGAUCGGAAACGAUCCGCGGCUAGGGUGCGAGGACCGGUACGGCCGCCACUCGGGUAACAUGAGGAUCACCCAUGUCCGAUUU [ETA NP+V+V2 #13 Same Structure] ?
79

Quick check: apparent KD of MS2 coat protein on MS2 coat protein, item UAAUAGAUUACGGCCGCCACUGAAGUGGACUUUAUGAGCAGGAUUCACAUGAGGAUCACCCAUGUCAGGACCGGGUACGUCCAUA [theeternabot_exclusion_MS2_Trp_B_33] ?
44

Quick check: apparent KD of MS2 coat protein on MS2 coat protein, item ACAUUAGCCACGGCCGCCACUGCCUUAUGAUUAUAAGGAUUAAUGAACAUGAGGAUCACCCAUGUCAGGACCGGGUGCCUACCAU [SSTryp B #5] ?
32.5

Quick check: apparent KD of MS2 coat protein on MS2 coat protein, item AAUAAGCAGCUGCAUCAUGGGUGAGCAGAUACCAGCUAGGAAACUAGCCCUUGGCAGCUGCAACAUGAGGAUCACCCAUGUAAUA [(T)'-(M)'-(T1)-(T2)-(M1)-(M2)_Design5] ?
108

Quick check: apparent KD of MS2 coat protein on MS2 coat protein, item GGUUACUCUACGGCCGCCACUGAUUAUUUAUAGUCCUGUACAUAAACAUGAGGAUCACCCAUGUACAGGACCGGGUAGUGUAACC [Tryptophan B 12] ?
53.9

Quick check: apparent KD of MS2 coat protein on MS2 coat protein, item GCUGCCAUACGAAGGAGCGCUGCUGCGAUGUGGCGAACAUGAGGAUCACCCAUGUGGCAGCAGCAGGUAGGUCGCGUAUGGCAGC [#01 Exclusion - Arginine B] ?
489

Quick check: apparent KD of MS2 coat protein on MS2 coat protein, item CCUAUUCCUACGGAUACCAGACGAUCCGUGGCGUGUGUGAACAUGAGGAUCACCCAUGUAGUCCCUUGGCAGCCGAUGCGGGUAA [theeternabot_exclusion_MS2_Theo_B_10] ?
51.4

Quick check: apparent KD of MS2 coat protein on MS2 coat protein, item AAACAUGAGGAUCACCCAUGUCCUCGUGAUCGAGGACCGGUACGGCCGCCACUCGGUCCUCGCGAGGUGGAGUCAAAGACUCCAA [Omei Trp A SS A v7] ?
215

====

System: MS2 coat protein
Assay: apparent KD of MS2 coat protein; designed switch direction (-1 OFF switch, 1 ON switch): -1; higher = weaker reporter binding
Details: input ligand: FMN 200 uM
recorded_endpoint: apparent KD of MS2 coat protein (nM)
Field format: number, assumed nM, no unit text.

Reported apparent KD of MS2 coat protein for AGUACCUGAGUACAAAGUAACAUGAGGAUCACCCAUGUAAAUGGGUGAGAACAAGCUCACCGUUCGUCUUAAAUAAA [JL turnoff v1 79] (Eterna round: R96, puzzle: Sensor v2, turn-off variant) : what is it?
584

Reported apparent KD of MS2 coat protein for CAGUACUGAGGAUAUACAUGAGGAUCACCCAUGUGUUCCAGCUAGGAGACUAGCAAAUGUAGAAGGCAGUACUG [jl-ex3-4.02 salish99 mod] (Eterna round: R97, puzzle: Exclusion 3) : what is it?
615

Reported apparent KD of MS2 coat protein for GUUUGACAUGAGGAUCACCCAUGUAAGGAUAUACGAGUAGAUACUAGAUAGUUAGUAUGUAGAAGGUACGUGUU [EX1 #64] (Eterna round: R97, puzzle: Exclusion 1) : what is it?
34.6

Reported apparent KD of MS2 coat protein for GCCGGUCAUGUAGGAUAUGGCCGGCGGUGCCGGCCAGAAGGACAUGAGGAUCACCCAUGUGCCGGCCUUUGGCCGGCGCCCGGC (Eterna round: R96, puzzle: Exclusion NG 1) : what is it?
8.65

Reported apparent KD of MS2 coat protein for UCUUAUUGAGGAUAUACAGAUUAUUACAUGAGGAUCACCCAUGUUCUUCAAUGUAUAUAUGUAGAAGGCAGAGGAA [Mat - Exclusion 5 - JL Mod - D11] (Eterna round: R97, puzzle: Exclusion 5) : what is it?
112

====

Tested on: K4 kissing-loop RNA reporter;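 also: bound reporter read as fluorescence of individual clusters on recovered sequencing chips by microscopy, with normalized cluster intensities fitted with a binding model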
Assay: apparent KD of K4 kissing-loop reporter; higher = weaker reporter binding
Settings: Eterna round: R107; input ligand: none
recorded_endpoint: apparent KD of K4 kissing-loop reporter (nM)
Field format: number, assumed nM, no unit text.

Reported apparent KD of K4 kissing-loop reporter for AGCCUUACAUCGGCCGCCACUUCCCUGGCAGUGAUGUUGCCGUAGACAAUCAUUCUACCCUGGAGAAGGACCGGGAUGCAGAAAC [theeternabot_sameState_KL_Trp_B_8] : what is it?
167

Reported apparent KD of K4 kissing-loop reporter for UGCAGUGAUGUUGCUAUUUUUCUUGAUUAACGAGGACCGGUACGGCCGCCACUCGAUUUCUCUCUAGUCCAGUAUGUUGUUUGAU [whbob_EX_Tryp_A_t5] : what is it?
99.8

Reported apparent KD of K4 kissing-loop reporter for GAUCUGAACGAAAGUUCGGAUCAGUCCGAUACCAGUAUGGAUUCAUACCCUUGGCAGCGGAAAUCUGCUAUGGAGUGAUGUUCCA [Theophylline A K4 14] : what is it?
379

Reported apparent KD of K4 kissing-loop reporter for CUGACGCUGAUACGGUGGCCGAUGGUCGUGCGAGGACCGGUACGGCCGCCACUCGCAUGAGUGAUGUUCAUGUGUCGUCGUCGUC [#06 K4 Tryptophan A Exclusion] : what is it?
130

Reported apparent KD of K4 kissing-loop reporter for CGGCGGAGUGAUGUUCCACCUACUGCGGAUACCAGCUUUGCCAAAGGCCCUUGGCAGCCGCACGGCUCAGUGAUGUUGGGUCGCG [Same State Theophylline A G11] : what is it?
244

Reported apparent KD of K4 kissing-loop reporter for GCCGUAGUUGGAAGGAGCGUGAAUGGCCUCUAUCCAAAGUGAUGUUUUGUUGAAGACUGUUCACAGGUAGGUCGCCAACUACGGC [#09 K4 Arginine B Same State] : what is it?
133

====

Reported apparent KD of MS2 coat protein values for the following sequences.
System: MS2 coat protein
Experiment: apparent KD of MS2 coat protein; designed switch direction (-1 OFF switch, 1 ON switch): -1; higher = weaker reporter binding
Settings: input ligand: microRNA oligo, concentration not stated
Field format: number, assumed nM, no unit text.

Consider the worked cases shown below.
AAGAAGAUAGGAUAUACGAGGAGAGGAGAGAAGAGGUGAGGACAUGAGGAUCACCCAUGUAGAAGGAUCAGGAA [JR_Exclu2_Sub063] (Eterna round: R96, puzzle: Exclusion 2) | 91
UUGUUGUAUGUAGGAUAUGCAUAUUAUUAUUAUGCAGAAGGACAUGAGGAUCACCCAUGUAUGUUAUUAUUAUAUGUUAUAUGU [Title] (Eterna round: R96, puzzle: Exclusion NG 1) | 25.6
UUCGUGCAGCUUUGCUGUACGCGUACAUGAGGAUCACCCAUGUAGGAUAUGGUAGGCAAAGCUUACUAGAAGGAUAUGGUGAGC [Mat - Exclusion NG 3 - Mod of JL - D79] (Eterna round: R96, puzzle: Exclusion NG 3) | 15.5
ACAAGAGCGGAAGGAUAUUGUACAUGAGGAUCACCCAUGUAAUAAAUGAGGAUCACGGAUGUAGUCAAGAAGGUCCGGAUAAGA [Ostracism 1 - Jieux - Exclusion NG 2] (Eterna round: R96, puzzle: Exclusion NG 2) | 60.8
CUGUUUUUCGCAGGAUAUGCUCCUCCAUUAUUUGCAGAAGGGCGUUAAACAUGAGGAUCACCCAUGUAUGGUAAUGACUAUUGC [JR_ExcNG1_Sub066] (Eterna round: R96, puzzle: Exclusion NG 1) | 12.6

Reported apparent KD of MS2 coat protein for AGAGUACUGCGAGGAUAUACAUGAGGAUCACCCAUGUGGUGGUGUGAGGCAAAGCCUCACACCAUGUAGAAGGCGCAGUACUCA [Mat - Exclusion NG 2 - Mod of JL - D20] (Eterna round: R96, puzzle: Exclusion NG 2) : what is it?
26.6

Reported apparent KD of MS2 coat protein for UGAUCAGACCGAGGAUAUAUAUGUAGGACCCACGUGAGUGGGUCCAGUACAUGAGGAUCACCCAUGUAGAAGGCGGUCUGAUCU [JL ENG2 1.87] (Eterna round: R96, puzzle: Exclusion NG 2) : what is it?
10.7

Reported apparent KD of MS2 coat protein for AACCUGAGGCAAAGCUUUAGGUGUACAUGAGGAUCACCCAUGUAGGAUAUGGUAGGCUUUGCUUACCAGAAGGACAUAAUGAUG [Mat - Exclusion NG 3 - Mod of JL - D46] (Eterna round: R96, puzzle: Exclusion NG 3) : what is it?
42

Reported apparent KD of MS2 coat protein for UUUAUUAAUUAAUAUAAUAAGAUCACAUGAGGAUCACCCAUGUAGGAUAUCAGCUCGAUUAGAGCUGAGAAGGACAUAAUUAUA [ExNG3/1-B1] (Eterna round: R96, puzzle: Exclusion NG 3) : what is it?
29.2

Reported apparent KD of MS2 coat protein for GGAAAUCAUGUAGGAUAUGCGUGGCGAAGCUAUGCAGAAGGACAUGAGGAUCACCCAUGUGCUUCCGUCUGCGUACAGACGGUA [Mat - Exclusion NG 1 - Mod of JL - D19] (Eterna round: R96, puzzle: Exclusion NG 1) : what is it?
78.5

Reported apparent KD of MS2 coat protein for GCGGAAAACUUAGGAUAUCAGGGCUGCACAUGAGGAUCACCCAUGUGAUAGCUCUAACGCGGUCCUGAGAAGGGAGAGCCCGGA [Rarasoa] (Eterna round: R96, puzzle: Exclusion NG 2) : what is it?
43.8

Reported apparent KD of MS2 coat protein for CGUCGACAUGUAGGAUAUCUGCACGAUUAGUGCAGAGAAGGACAUGAGGAUCACCCAUGUAGAUCACGACGAAUUAAUUUAAUU [ENG1/6-C1] (Eterna round: R96, puzzle: Exclusion NG 1) : what is it?
298

Reported apparent KD of MS2 coat protein for CACCGUUAGUGAGGAUAUAUUACAUGAGGAUCACCCAUGUAAUAAAUGAGAAUUUCGGAUGUAUGAUAGAAGGCACAAAUCGGC [Ostricism 52 - Jieux - Exclusion NG 2] (Eterna round: R96, puzzle: Exclusion NG 2) : what is it?
11.2

Reported apparent KD of MS2 coat protein for GCCAGGUGAUUCGGCCAUGACAUGAGGAUCACCCAUGUAACAAUCUAGCAAGCAAACAAGGCCGUCGUGUAGGUAUU [Rigeusarla] (Eterna round: R96, puzzle: Sensor v2, turn-off variant) : what is it?
61.1

Reported apparent KD of MS2 coat protein for ACUGUUUGAUACCUCUAAUACAUGAGGAUCACCCAUGUUAUCGAGGAUAUGCAUUAGAGUGGUUAGCAGAAGGCGAAGUAAUUG [JR_ExcNG3_Sub031] (Eterna round: R96, puzzle: Exclusion NG 3) : what is it?
14.2

Reported apparent KD of MS2 coat protein for CUGAACCCGGUAGGAUAUAUUGUGGGCGGGCGUGGAACGACAUGAGGAUCACCCAUGUAAUUGAGGUAGAAGGGCCGAGAGGUU [Excl-NG2-LRO16] (Eterna round: R96, puzzle: Exclusion NG 2) : what is it?
30.4

Reported apparent KD of MS2 coat protein for UCACCUGGGUCAGGAUAUAAAGGGUCAGGAAGUUUAGAAGGGACUUAGGACAUGAGGAUCACCCAUGUUGAGAACUCGUUUGUA [Eternabot solution 25] (Eterna round: R96, puzzle: Exclusion NG 1) : what is it?
27.5
